Hey, just so you know, these numbers are from PubChem BioAssay (NCATS).

# Test system: CP286
# protocol-summary: qHTS profiling for inhibitors of Plasmodium falciparum proliferation (AID 504749); note: nearly all actives have a fitted effect of over 60% in size
# conditions-used: P. falciparum in erythrocytes, SYBR Green DNA, 72 h; series mostly up to 28.7 µM
Inconclusive results are not listed. Active and inactive are the calls of the source. Calls come from the whole dose curve; as a rule, active = well fitted inhibition curve with a large enough effect; inconclusive = small, poorly fitted or top-dose-only effect; inactive = flat fitted curve, though single readings scatter.
The reply should be one of these categories: active, inactive

Solved cases (6 shown):
> print(dat)
                                   molecule  category.label
1                         Nc1[nH]c(=O)ncc1F        inactive
2   N=C(N)c1ccc(OCCCCCOc2ccc(C(=N)N)cc2)cc1          active
3  Nc1nc(N)c2nc(CNc3ccc(C(=O)NC(CCC(=O)O)C(=O)O)cc3)cnc2n1 (configuration not stated)        inactive
4                            NC(=O)c1cccnc1        inactive
5  CCOCC(O)COc1ccc(NC(=O)CC[S+](C)C)cc1 (configuration not stated)        inactive
6                   CCCCOc1ccc(CC(=O)NO)cc1          active

Ask: Call for entry COC(=O)Nc1nc2ccc(C(=O)c3ccccc3)cc2[nH]1 :
Reply: inactive

Ask: Call for entry C1CCC(C(CC2CCCCN2)C2CCCCC2)CC1 (configuration not stated) :
Reply: active

Ask: Call for entry COc1cc(NS(=O)(=O)c2ccc(N)cc2)nc(OC)n1 :
Reply: inactive

Ask: Call for entry Cc1noc(NS(=O)(=O)c2ccc(N)cc2)c1C :
Reply: inactive

Ask: Call for entry CN1CCN(c2c(F)cc3c(=O)c(C(=O)O)cn(CCF)c3c2F)CC1 :
Reply: inactive

Ask: Call for entry CCCCCCNC(=O)n1cc(F)c(=O)[nH]c1=O :
Reply: active

Ask: Call for entry COc1nc(N)nc2c1ncn2[C@@H]1O[C@H](CO)[C@@H](O)[C@@H]1O :
Reply: inactive
